experiment: Approximate kinetic solubility in pharmaceutical co-solvents; type: physicochemical; conditions: aqueous with cosolvent or surfactant or cyclodextrin, thermodynamic from solid; 20% PEG in aqueous solution, no-pH adjustment, 2 hrs.
Where a name gives a salt, the structure may show the parent alone.
measuredParameter: solubility kinetic at 2 h (µg/mL)
One number for each entry, in µg/mL.

Q. Dear colleague, I am looking for the recorded solubility kinetic at 2 h of the following molecule: CCS(=O)(=O)N1CCN(c2ccc(Nc3ncc(C(N)=O)c(NC4CC4)n3)cc2)CC1 [Compound I HCl Form I]
A. 270

----------
assay: Approximate kinetic solubility in pharmaceutical co-solvents; format: physicochemical; conditions: aqueous with cosolvent or surfactant or cyclodextrin, thermodynamic from solid; 2% Captisol in aqueous solution, no-pH adjustment, 24 hrs.
Where a name gives a salt, the structure may show the parent alone.
measuredParameter: solubility kinetic at 24 h
// return the numeric value with its unit appended

Q. Dear colleague, I am looking for the recorded solubility kinetic at 24 h of the following compound: CCS(=O)(=O)N1CCN(c2ccc(Nc3ncc(C(N)=O)c(NC4CC4)n3)cc2)CC1 [Compound I HCl Form I]
A. 2510 µg/mL

----------
assay: Approximate kinetic solubility in pharmaceutical co-solvents; assay type: physicochemical; settings: aqueous with cosolvent or surfactant or cyclodextrin, thermodynamic from solid; 10% HP-β-CD in aqueous solution, no-pH adjustment, 24 hrs.
Counter-ions that a name gives are not always drawn.
measuredParameter: solubility kinetic at 24 h (mg/mL)
Answers are plain numbers, in mg/mL.

Q. Dear colleague, I am looking for the recorded solubility kinetic at 24 h of the following compound: CCS(=O)(=O)N1CCN(c2ccc(Nc3ncc(C(N)=O)c(NC4CC4)n3)cc2)CC1 [Compound I HCl Form I]
A. 2.03

----------
assay: Approximate kinetic solubility in pharmaceutical co-solvents; format: physicochemical; conditions: aqueous with cosolvent or surfactant or cyclodextrin, thermodynamic from solid; 10% Labrasol in aqueous solution, no-pH adjustment, 24 hrs.
Where a name gives a salt, the structure may show the parent alone.
measuredParameter: solubility kinetic at 24 h

Q. Dear colleague, I am looking for the recorded solubility kinetic at 24 h of the following compound: CCS(=O)(=O)N1CCN(c2ccc(Nc3ncc(C(N)=O)c(NC4CC4)n3)cc2)CC1 [Compound I HCl Form I]
A. 820 µg/mL

----------
assay: Approximate kinetic solubility in pharmaceutical co-solvents; assay type: physicochemical; settings: aqueous with cosolvent or surfactant or cyclodextrin, thermodynamic from solid; 30% PEG in aqueous solution, no-pH adjustment, 7 days
Counter-ions that a name gives are not always drawn.
measuredParameter: solubility kinetic at 7 days (µg/mL)
Give bare numbers, in µg/mL.

Q. Dear colleague, I am looking for the recorded solubility kinetic at 7 days of the following compound: CCS(=O)(=O)N1CCN(c2ccc(Nc3ncc(C(N)=O)c(NC4CC4)n3)cc2)CC1 [Compound I HCl Form I]
A. 410

----------
experiment: Approximate kinetic solubility in pharmaceutical co-solvents; assay type: physicochemical; details: aqueous with cosolvent or surfactant or cyclodextrin, thermodynamic from solid; 10% Captisol in aqueous solution, no-pH adjustment, 7 days
Where a name gives a salt, the structure may show the parent alone.
measuredParameter: solubility kinetic at 7 days (µg/mL)
Answers are plain numbers, in µg/mL.

Q. Dear colleague, I am looking for the recorded solubility kinetic at 7 days of the following compound: CCS(=O)(=O)N1CCN(c2ccc(Nc3ncc(C(N)=O)c(NC4CC4)n3)cc2)CC1 [Compound I HCl Form I]
A. 3670

----------
assay: Approximate kinetic solubility in pharmaceutical co-solvents; assay type: physicochemical; conditions: aqueous with cosolvent or surfactant or cyclodextrin, thermodynamic from solid; 10% Captisol in aqueous solution, no-pH adjustment, 24 hrs.
Counter-ions that a name gives are not always drawn.
measuredParameter: solubility kinetic at 24 h (µg/mL)
Numbers only, in µg/mL.

Q. Dear colleague, I am looking for the recorded solubility kinetic at 24 h of the following molecule: CCS(=O)(=O)N1CCN(c2ccc(Nc3ncc(C(N)=O)c(NC4CC4)n3)cc2)CC1 [Compound I HCl Form I]
A. 3410

----------
assay: Approximate kinetic solubility in pharmaceutical co-solvents; type: physicochemical; settings: aqueous with cosolvent or surfactant or cyclodextrin, thermodynamic from solid; 5% TPGS in aqueous solution, no-pH adjustment, 2 hrs.
Where a name gives a salt, the structure may show the parent alone.
measuredParameter: solubility kinetic at 2 h (µg/mL)
Numbers only, in µg/mL.

Q. Dear colleague, I am looking for the recorded solubility kinetic at 2 h of the following compound: CCS(=O)(=O)N1CCN(c2ccc(Nc3ncc(C(N)=O)c(NC4CC4)n3)cc2)CC1 [Compound I HCl Form I]
A. 1610

----------
assay: Approximate kinetic solubility in pharmaceutical co-solvents; type: physicochemical; settings: aqueous with cosolvent or surfactant or cyclodextrin, thermodynamic from solid; 5% HP-β-CD in aqueous solution, no-pH adjustment, 2 hrs.
Where a name gives a salt, the structure may show the parent alone.
measuredParameter: solubility kinetic at 2 h (µg/mL)
Answers are plain numbers, in µg/mL.

Q. Dear colleague, I am looking for the recorded solubility kinetic at 2 h of the following molecule: CCS(=O)(=O)N1CCN(c2ccc(Nc3ncc(C(N)=O)c(NC4CC4)n3)cc2)CC1 [Compound I HCl Form I]
A. 1450

----------
Experiment: Approximate kinetic solubility in pharmaceutical co-solvents
Assay type: physicochemical
Conditions: aqueous with cosolvent or surfactant or cyclodextrin, thermodynamic from solid; 5% Captisol in aqueous solution, no-pH adjustment, 24 hrs.
Description: A summary of the approximate kinetic solubility of Compound I HCl Form I in organic solvents, simulated biological fluids, and common pharmaceutical co-solvents is provided in Tables 8-10, respectively.
Where a name gives a salt, the structure may show the parent alone.
measuredParameter: solubility kinetic at 24 h (mg/mL)
Numbers only, in mg/mL.

Q. Dear colleague, I am looking for the recorded solubility kinetic at 24 h of the following compound: CCS(=O)(=O)N1CCN(c2ccc(Nc3ncc(C(N)=O)c(NC4CC4)n3)cc2)CC1 [Compound I HCl Form I]
A. 3.61

----------
test: Approximate kinetic solubility in pharmaceutical co-solvents; assay type: physicochemical; settings: aqueous with cosolvent or surfactant or cyclodextrin, thermodynamic from solid; 5% Poloxamer F68 in aqueous solution, no-pH adjustment, 2 hrs.
Structures can show the parent of a compound that is named as a salt.
measuredParameter: solubility kinetic at 2 h (µg/mL)
One number for each entry, in µg/mL.

Q. Dear colleague, I am looking for the recorded solubility kinetic at 2 h of the following compound: CCS(=O)(=O)N1CCN(c2ccc(Nc3ncc(C(N)=O)c(NC4CC4)n3)cc2)CC1 [Compound I HCl Form I]
A. 230

----------
test: Further solubility testing of Compound I HCl Form I in solvents; format: physicochemical; conditions: EtOAc, organic solvent or mixture
Structures can show the parent of a compound that is named as a salt.
measuredParameter: solubility

Q. Dear colleague, I am looking for the recorded solubility of the following compound: CCS(=O)(=O)N1CCN(c2ccc(Nc3ncc(C(N)=O)c(NC4CC4)n3)cc2)CC1 [Compound I HCl Form I]
A. < 2000 µg/mL

----------
test: Approximate kinetic solubility in pharmaceutical co-solvents; type: physicochemical; conditions: aqueous with cosolvent or surfactant or cyclodextrin, thermodynamic from solid; 10% Captisol in aqueous solution, no-pH adjustment, 2 hrs.
Where a name gives a salt, the structure may show the parent alone.
measuredParameter: solubility kinetic at 2 h (µg/mL)
One number for each entry, in µg/mL.

Q. Dear colleague, I am looking for the recorded solubility kinetic at 2 h of the following compound: CCS(=O)(=O)N1CCN(c2ccc(Nc3ncc(C(N)=O)c(NC4CC4)n3)cc2)CC1 [Compound I HCl Form I]
A. 3040

----------
test: Further solubility testing of Compound I HCl Form I in solvents; format: physicochemical; settings: MeOH, organic solvent or mixture
Structures can show the parent of a compound that is named as a salt.
measuredParameter: solubility

Q. Dear colleague, I am looking for the recorded solubility of the following molecule: CCS(=O)(=O)N1CCN(c2ccc(Nc3ncc(C(N)=O)c(NC4CC4)n3)cc2)CC1 [Compound I HCl Form I]
A. 1900 to 6300 µg/mL

----------
assay: Approximate kinetic solubility in pharmaceutical co-solvents; assay type: physicochemical; settings: aqueous with cosolvent or surfactant or cyclodextrin, thermodynamic from solid; 5% Captisol in aqueous solution, no-pH adjustment, 7 days
Structures can show the parent of a compound that is named as a salt.
measuredParameter: solubility kinetic at 7 days (µg/mL)
Numbers only, in µg/mL.

Q. Dear colleague, I am looking for the recorded solubility kinetic at 7 days of the following molecule: CCS(=O)(=O)N1CCN(c2ccc(Nc3ncc(C(N)=O)c(NC4CC4)n3)cc2)CC1 [Compound I HCl Form I]
A. 3750

----------
test: Approximate kinetic solubility in pharmaceutical co-solvents; format: physicochemical; settings: aqueous with cosolvent or surfactant or cyclodextrin, thermodynamic from solid; 3% HP-β-CD in aqueous solution, no-pH adjustment, 2 hrs.
Where a name gives a salt, the structure may show the parent alone.
measuredParameter: solubility kinetic at 2 h (µg/mL)
Numbers only, in µg/mL.

Q. Dear colleague, I am looking for the recorded solubility kinetic at 2 h of the following compound: CCS(=O)(=O)N1CCN(c2ccc(Nc3ncc(C(N)=O)c(NC4CC4)n3)cc2)CC1 [Compound I HCl Form I]
A. 990
